- Assay text: Drug uptake in tumor of SCID mouse xenografted with PTEN-deficient human PC3 cells at 300 mg/kg, po BID measured after 1 hr
- Type: ADME, organism-based, Neoplasm, PC-3
- Parameters: dose 300 mg/kg, route oral
- Applied conditions: read-out: Drug uptake
Measured endpoint: concentration at 1 h

[Q] Param item = `Cn1c(Cc2nc(N3CCOCC3)cc(=O)[nH]2)nc2ccccc21` ; retrieve measured concentration at 1 h.
[A] 16 µM

====

- Assay text: Clearance in CB17/ICR-Prkdc SCID mouse at 6 mg/kg, iv
- Type: ADME, organism-based
- Parameters: dose 6 mg/kg, route intravenous
- Applied conditions: in vivo
Measured endpoint: clearance (mL/min/kg)
Kindly answer with a numeric value in mL/min/kg, unit omitted.

[Q] Param item = `Cn1c(Cc2nc(N3CCOCC3)cc(=O)[nH]2)nc2ccccc21` ; retrieve measured clearance.
[A] 51.7

====

- Assay text: Plasma concentration in SCID mouse xenografted with PTEN-deficient human PC3 cells at 300 mg/kg, po BID measured after 6 hrs
- Assay type: ADME, organism-based, PC-3
- Parameters: dose 300 mg/kg, route oral
Measured endpoint: concentration at 6 h (µM)
Kindly answer with a numeric value in µM, unit omitted.

[Q] Param item = `Cn1c(Cc2nc(N3CCOCC3)cc(=O)[nH]2)nc2ccccc21` ; retrieve measured concentration at 6 h.
[A] 11

====

- Assay text: Drug metabolism in human liver microsomes
- Assay type: ADME, Microsome
- Applied conditions: read-out: Drug metabolism
Measured endpoint: metabolised (%)
Kindly answer with a numeric value in %, unit omitted.

[Q] Param item = `O=c1cc(N2CCOCC2)nc(Cc2nc3cc(F)ccc3n2C2CC2)[nH]1` ; retrieve measured metabolised.
[A] 99

[Q] Param item = `Cn1c(Cc2nc(N3CCOCC3)cc(=O)[nH]2)nc2cccc(-c3ccccc3)c21` ; retrieve measured metabolised.
[A] 57

[Q] Param item = `O=c1cc(N2CCOCC2)nc(Cc2nc3ccc(Cl)cc3[nH]2)[nH]1` ; retrieve measured metabolised.
[A] 78

[Q] Param item = `Cn1c(Cc2nc(N3CCOCC3)cc(=O)[nH]2)nc2cc(F)ccc21` ; retrieve measured metabolised.
[A] 39

[Q] Param item = `CCn1c(Cc2nc(N3CCOCC3)cc(=O)[nH]2)nc2ccccc21` ; retrieve measured metabolised.
[A] 60

====

- Tgt: Phosphatidylinositol 4,5-bisphosphate 3-kinase catalytic subunit delta isoform (Homo sapiens)
- Sequence (O00329 whole entry, canonical isoform): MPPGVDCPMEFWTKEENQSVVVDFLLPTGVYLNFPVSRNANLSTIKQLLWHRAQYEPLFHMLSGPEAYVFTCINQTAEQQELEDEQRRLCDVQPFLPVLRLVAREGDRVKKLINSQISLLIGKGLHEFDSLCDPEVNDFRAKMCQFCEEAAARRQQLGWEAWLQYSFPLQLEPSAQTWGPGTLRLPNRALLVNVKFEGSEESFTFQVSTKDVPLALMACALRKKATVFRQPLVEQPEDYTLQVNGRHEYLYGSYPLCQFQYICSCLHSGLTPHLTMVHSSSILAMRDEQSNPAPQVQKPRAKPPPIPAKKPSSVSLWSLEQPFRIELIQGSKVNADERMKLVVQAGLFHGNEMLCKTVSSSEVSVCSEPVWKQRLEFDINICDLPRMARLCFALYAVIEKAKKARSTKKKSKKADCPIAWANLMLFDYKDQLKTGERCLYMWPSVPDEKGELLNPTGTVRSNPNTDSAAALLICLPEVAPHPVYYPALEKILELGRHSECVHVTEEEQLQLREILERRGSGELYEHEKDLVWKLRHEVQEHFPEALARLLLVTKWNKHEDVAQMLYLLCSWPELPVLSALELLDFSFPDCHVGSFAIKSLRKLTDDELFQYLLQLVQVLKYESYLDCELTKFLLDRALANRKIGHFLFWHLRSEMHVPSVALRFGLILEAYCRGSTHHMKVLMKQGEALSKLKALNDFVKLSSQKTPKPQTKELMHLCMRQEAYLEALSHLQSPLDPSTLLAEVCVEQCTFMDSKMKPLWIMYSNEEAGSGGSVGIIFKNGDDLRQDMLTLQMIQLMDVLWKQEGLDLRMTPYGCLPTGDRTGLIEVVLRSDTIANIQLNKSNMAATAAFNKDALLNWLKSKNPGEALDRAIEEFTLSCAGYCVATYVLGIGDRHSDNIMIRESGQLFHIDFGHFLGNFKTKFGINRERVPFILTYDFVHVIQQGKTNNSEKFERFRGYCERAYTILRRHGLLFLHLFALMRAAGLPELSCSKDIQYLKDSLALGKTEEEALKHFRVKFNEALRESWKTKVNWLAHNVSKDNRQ
- Assay text: Inhibition of poly-His tagged human PI3Kdelta expressed in baculovirus infected insect sf9 cells coexpressing p85alpha using PI(4,5)P2 as substrate preincubated with compound for 15 mins measured after 10 mins by HTRF assay
# if measured IC50 < 400 nM: rule met  # else: rule not met

[Q] Confirm or reject: IC50 of `COCCn1c(Cc2nc(N3CCOCC3)cc(=O)[nH]2)nc2cc(F)ccc21` lies strictly below 400 nM
[A] rule met

[Q] Confirm or reject: IC50 of `O=c1cc(N2CCOCC2)nc(Cc2nc3ccccc3n2C2CCCCC2)[nH]1` lies strictly below 400 nM
[A] rule met

[Q] Confirm or reject: IC50 of `O=c1cc(N2CCOCC2)nc(Cc2nc3ccc(F)cc3[nH]2)[nH]1` lies strictly below 400 nM
[A] rule met

[Q] Confirm or reject: IC50 of `O=c1cc(N2CCOCC2)nc(Cc2nc3c(-c4cccnc4)cccc3o2)[nH]1` lies strictly below 400 nM
[A] rule met

[Q] Confirm or reject: IC50 of `Cn1c(Cc2nc3cc(F)ccc3[nH]2)nc(N2CCOCC2)cc1=O` lies strictly below 400 nM
[A] rule not met

[Q] Confirm or reject: IC50 of `O=c1cc(N2CCOCC2)nc(Cc2nc3ccc(F)cc3o2)[nH]1` lies strictly below 400 nM
[A] rule not met

[Q] Confirm or reject: IC50 of `O=c1cc(N2CCOCC2)nc(Cc2nc3c(-c4ccncc4)cccc3o2)[nH]1` lies strictly below 400 nM
[A] rule not met

[Q] Confirm or reject: IC50 of `Cn1c(Cc2nc(N3CCOCC3)cc(=O)[nH]2)nc2ccc(F)cc21` lies strictly below 400 nM
[A] rule not met

[Q] Confirm or reject: IC50 of `O=c1cc(N2CCOCC2)nc(Cc2nc3c(-c4ccccc4)cccc3o2)[nH]1` lies strictly below 400 nM
[A] rule met

[Q] Confirm or reject: IC50 of `Cn1c(Cc2nc(N3CCOCC3)cc(=O)[nH]2)nc2ccc(-c3ccccc3)cc21` lies strictly below 400 nM
[A] rule not met

[Q] Confirm or reject: IC50 of `O=c1cc(N2CCOCC2)nc(Cc2nc3cccc(F)c3o2)[nH]1` lies strictly below 400 nM
[A] rule not met

[Q] Confirm or reject: IC50 of `O=c1cc(N2CCOCC2)nc(Cc2nc3cc(F)ccc3o2)[nH]1` lies strictly below 400 nM
[A] rule not met

[Q] Confirm or reject: IC50 of `O=C(Cc1nc(N2CCOCC2)cc(=O)[nH]1)Nc1ccccc1` lies strictly below 400 nM
[A] rule met

[Q] Confirm or reject: IC50 of Cc1cc(C(C)Nc2ccccc2)c2nc(N3CCOCC3)cc(=O)n2c1 (stereo unspecified) lies strictly below 400 nM
[A] rule not met

[Q] Confirm or reject: IC50 of `Cc1cc(F)ccc1Oc1cccc2c(=O)cc(N3CCOCC3)[nH]c12` lies strictly below 400 nM
[A] rule met
